Give measured pIC50 for each item. Keep answers brief.
Test system: THP-1
Assay: Antiinflammatory activity against human THP-1 cells assessed as inhibition of LPS-induced TNF-alpha production
Assay type: functional, cell-based
# pIC50: negative log10 of molar concentration; output just the value

Dear colleague, please send me the reported pIC50 for Cn1c(=O)c(Oc2ccc(F)cc2F)cc2cnc(NC(CCO)CCO)nc21 [PAMAPIMOD] when you can.
6.52

Specify measured pIC50 for Cn1c(=O)c(Oc2ccc(F)cc2F)cc2cnc(NC3CCOCC3)nc21 [R-1487] .
6.10

====

reported-metric: IC50 (nM)
# number only, unit nM dropped from output

State IC50 on 3',5'-cyclic-AMP phosphodiesterase 4B (Homo sapiens, UniProt Q07343). Entry: CC(=O)Nc1cc(-c2c(-c3ccc(F)cc3)nc([S+](C)[O-])n2C)ccn1 (stereo unspecified)
Sequence (Q07343 whole entry): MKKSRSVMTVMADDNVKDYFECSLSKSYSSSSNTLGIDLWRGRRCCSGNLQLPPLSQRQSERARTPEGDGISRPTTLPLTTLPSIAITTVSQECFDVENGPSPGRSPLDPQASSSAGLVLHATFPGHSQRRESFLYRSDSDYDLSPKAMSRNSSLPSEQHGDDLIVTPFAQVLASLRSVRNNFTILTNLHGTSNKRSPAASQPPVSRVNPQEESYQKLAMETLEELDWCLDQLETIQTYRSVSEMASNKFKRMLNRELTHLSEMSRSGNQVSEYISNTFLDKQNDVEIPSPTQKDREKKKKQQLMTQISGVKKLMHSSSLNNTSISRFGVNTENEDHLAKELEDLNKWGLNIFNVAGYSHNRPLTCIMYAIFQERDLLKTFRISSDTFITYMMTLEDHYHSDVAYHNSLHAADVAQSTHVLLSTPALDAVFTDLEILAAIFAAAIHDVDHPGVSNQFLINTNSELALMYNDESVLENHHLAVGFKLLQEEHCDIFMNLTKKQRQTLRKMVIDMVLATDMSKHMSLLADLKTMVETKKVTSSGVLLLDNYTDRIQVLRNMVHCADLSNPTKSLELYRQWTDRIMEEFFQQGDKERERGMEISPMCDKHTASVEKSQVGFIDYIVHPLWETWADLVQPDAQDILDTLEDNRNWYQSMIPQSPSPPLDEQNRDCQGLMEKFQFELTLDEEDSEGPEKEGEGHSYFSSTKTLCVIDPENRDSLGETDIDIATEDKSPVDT
1900
